Overview of reported SILAC ratio Atp6v1b2 across a group of compounds:
Target System: AEA-DA lipid probe targets in Neuro2a cells (Mus musculus, UniProt P62814)
Sequence (P62814 whole entry): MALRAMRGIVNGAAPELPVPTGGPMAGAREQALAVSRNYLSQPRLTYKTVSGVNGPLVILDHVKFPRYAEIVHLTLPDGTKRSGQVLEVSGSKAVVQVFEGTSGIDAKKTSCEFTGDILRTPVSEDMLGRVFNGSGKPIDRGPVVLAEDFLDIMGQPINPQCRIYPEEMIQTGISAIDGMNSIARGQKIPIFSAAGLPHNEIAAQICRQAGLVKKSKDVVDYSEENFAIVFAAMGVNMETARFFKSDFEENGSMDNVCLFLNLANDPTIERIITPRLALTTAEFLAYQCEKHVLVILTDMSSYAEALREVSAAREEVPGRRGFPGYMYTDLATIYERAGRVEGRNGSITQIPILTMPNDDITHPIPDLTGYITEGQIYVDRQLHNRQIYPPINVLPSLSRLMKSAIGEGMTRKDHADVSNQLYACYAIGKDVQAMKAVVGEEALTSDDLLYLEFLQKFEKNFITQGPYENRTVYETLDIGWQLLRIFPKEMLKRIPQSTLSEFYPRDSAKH
Experimental Setup: competitor 25 μM
Format: numeric value only, no unit, no commentary.

Consider the following illustrative entries.
# Compound, Target System, SILAC ratio Atp6v1b2
rows = [
    ("C=CCN(C)CCCCCCOc1ccc(C(=O)c2ccc(Br)cc2)c(F)c1 [Ro 48-8071, reference compound]", "AEA-DA lipid probe targets in Neuro2a cells (Mus musculus, UniProt P62814)", 0.6),
    ("O=C(/C=C/c1cccnc1)NCCCCC1CCN(C(=O)c2ccccc2)CC1 [FK-866, reference compound]", "AEA-DA lipid probe targets in Neuro2a cells (Mus musculus, UniProt P62814)", 1.6),
    ("CN1CCN(C(=O)c2c(-c3ccccc3)c3cc([N+](=O)[O-])ccc3n2C)CC1", "AEA-DA lipid probe targets in Neuro2a cells (Mus musculus, UniProt P62814)", 1.2),
]

Alright, here's another compound for you.
// SILAC ratio Atp6v1b2 lookup, key: CN1CCN(C(=O)c2[nH]c3ccc([N+](=O)[O-])cc3c2-c2ccccc2)CC1 1.1
